From: patent US20250059196A1

Consider the following molecules; for each one, report its Tmax.
Experiment Description: Pharmacokinetics of oral administration in Balb/C mice
Format: in vivo
Particulars: male, mouse, po, 30 mg/kg, P.O., plasma, read-out: Tmax
Answers are plain numbers, in h.

Here's what some known entries look like.
INSERT INTO results (molecule, measured_metric, readout_unit, reported_result) VALUES
  ('O=C(Nc1ccc(-n2nccn2)c(Cl)c1)c1cnn(-c2cnc3c4c(cccc24)C(=O)N3)c1C(F)(F)F [Example 75]', 'Tmax', 'h', 2),
  ('O=C(Nc1ccc(-n2nccn2)c(Cl)c1)c1cnn(-c2ccc3c4c(cccc24)C(=O)N3)c1C(F)(F)F [Example 53]', 'Tmax', 'h', 8);

Please give Tmax for each item listed below.
1. O=C(Nc1ccnc(C(F)(F)F)c1)c1cnn(-c2ccc3c4c(cccc24)C(=O)N3)c1C1CC1 [Example 55]
2. O=C(Nc1cnc(-n2nccn2)c(C(F)(F)F)c1)c1cnn(-c2ccc3c4c(cccc24)C(=O)N3)c1C(F)(F)F [Example 18]
3. O=C(Nc1cc(Cl)n2ncc(Cl)c2c1)c1cnn(-c2ccc3c4c(cccc24)C(=O)N3)c1C(F)(F)F [Example 13]
4. O=C(Nc1cnc(-n2nccn2)c(C(F)F)c1)c1cnn(-c2ccc3c4c(cccc24)C(=O)N3)c1C(F)(F)F [Example 49]

1: 4; 2: 2; 3: 4; 4: 2

Please give Tmax for each item listed below.
1. O=C(Nc1cnc(-n2cccn2)c(C(F)(F)F)c1)c1cnn(-c2ccc3c4c(cccc24)C(=O)N3)c1C(F)(F)F [Example 31]
2. O=C(Nc1ccc(-n2nccn2)c(C(F)(F)F)c1)c1cnn(-c2ccc3c4c(cccc24)C(=O)N3)c1C(F)(F)F [Example 50]
3. O=C(Nc1cnc(-n2nccn2)c(Cl)c1)c1cnn(-c2ccc3c4c(cccc24)C(=O)N3)c1C(F)(F)F [Example 5]

[2, 8, 2]

* * *

Experiment Description: Caco-2 bidirectional permeability test
Particulars: human, Caco-2
Consider the following molecules; for each one, report its Papp A→B at 90 min, 10 µM.
Answers are plain numbers, in ×10⁻⁶ cm/s.

INSERT INTO measurements (chem_smiles, reported_result) VALUES
  ('O=C(Nc1ccnc(C(F)(F)F)c1)c1cnn(-c2ccc3c4c(cccc24)C(=O)N3)c1C1CC1', 2.09);

Please give Papp A→B at 90 min, 10 µM for each item listed below.
1. O=C(Nc1ccc(-n2nccn2)c(Cl)c1)c1cnn(-c2ccc3c4c(cccc24)C(=O)N3)c1C(F)(F)F
2. O=C(Nc1cnc(-n2nccn2)c(Cl)c1)c1cnn(-c2ccc3c4c(cccc24)C(=O)N3)c1C(F)(F)F
3. O=C(Nc1cc(Cl)n2ncc(Cl)c2c1)c1cnn(-c2ccc3c4c(cccc24)C(=O)N3)c1C(F)(F)F

1. 1.58
2. 1
3. 7.63

* * *

Consider the following molecules; for each one, report its efflux ratio at 90 min, 10 µM.
Experiment Description: Caco-2 bidirectional permeability test
Particulars: human, Caco-2
Answers are plain numbers.

Here's what some known entries look like.
INSERT INTO measurements (molecule, measured_metric, reported_result) VALUES
  ('O=C(Nc1ccc(-n2nccn2)c(Cl)c1)c1cnn(-c2ccc3c4c(cccc24)C(=O)N3)c1C(F)(F)F [Example 53]', 'efflux ratio at 90 min, 10 µM', 2.95),
  ('O=C(Nc1ccnc(C(F)(F)F)c1)c1cnn(-c2ccc3c4c(cccc24)C(=O)N3)c1C1CC1 [Example 55]', 'efflux ratio at 90 min, 10 µM', 1.97),
  ('O=C(Nc1cc(Cl)n2ncc(Cl)c2c1)c1cnn(-c2ccc3c4c(cccc24)C(=O)N3)c1C(F)(F)F [Example 13]', 'efflux ratio at 90 min, 10 µM', 2.5);

Now turn to the next molecule.
The recorded efflux ratio at 90 min, 10 µM for O=C(Nc1cnc(-n2nccn2)c(Cl)c1)c1cnn(-c2ccc3c4c(cccc24)C(=O)N3)c1C(F)(F)F [Example 5] is 7.09

* * *

Experiment Description: Pharmacokinetics of oral administration in Balb/C mice
Type: in vivo
Particulars: male, mouse, po, 30 mg/kg, P.O., plasma
Measured Metric: half-life (h)
Numbers only, in h.

Please give half-life for each item listed below.
1. O=C(Nc1cnc(-n2nccn2)c(C(F)F)c1)c1cnn(-c2ccc3c4c(cccc24)C(=O)N3)c1C(F)(F)F
2. O=C(Nc1cnc(-n2nccn2)c(Cl)c1)c1cnn(-c2ccc3c4c(cccc24)C(=O)N3)c1C(F)(F)F

1: 2.1; 2: 2.1

The recorded half-life for O=C(Nc1cnc(-n2nccn2)c(C(F)(F)F)c1)c1cnn(-c2ccc3c4c(cccc24)C(=O)N3)c1C(F)(F)F is 1.9

* * *

System: OCI-Ly3 cells
Experiment Description: Inhibition of proliferation of OCI-Ly3 cells (CellTiter-Glo)
Format: cell-based, human
Particulars: Homo sapiens, 96 h incubation, read-out: Inhibition test of proliferation of OCI-Ly3 cells IC50
Measured Metric: pIC50
Give bare numbers, as −log10 of the molar value.

Please give pIC50 for each item listed below.
1. N#Cc1ccnn1-c1ncc(NC(=O)c2cnn(-c3ccc4c5c(cccc35)C(=O)N4)c2C(F)(F)F)cc1C(F)(F)F
2. O=C(Nc1cnc(-n2cccn2)c(C(F)(F)F)c1)c1cnn(-c2ccc3c4c(cccc24)C(=O)N3)c1C(F)(F)F
3. O=C(Nc1cnc(-n2nccn2)c(C(F)(F)F)c1)c1cnn(-c2ccc3c4c(cccc24)C(=O)N3)c1C1CC1

6.58
6.69
6.82

Please give pIC50 for each item listed below.
1. O=C(Nc1cnc(-c2ncco2)c(C(F)(F)F)c1)c1cnn(-c2ccc3c4c(cccc24)C(=O)N3)c1C(F)(F)F
2. O=C(Nc1cnc(-n2nccn2)c(C(F)(F)F)c1)c1cnn(-c2ccc3c4c(cccc24)C(=O)N3)c1C(F)F
3. N#Cc1cc(-n2ncc(C(=O)Nc3ccnc(C(F)(F)F)c3)c2C(F)(F)F)c2cccc3c2c1NC3=O
4. O=C(Nc1ccc(-n2nccn2)c(Cl)c1)c1cnn(-c2ccc3c4c(cccc24)C(=O)N3)c1C1CC1

1. 6.67
2. 7.06
3. 6.89
4. 6.81

* * *

Test system: OCI-Ly3 cells
Experiment Description: Inhibition of proliferation of OCI-Ly3 cells (CellTiter-Glo)
Assay type: cell-based, human
Particulars: Homo sapiens, 96 h incubation, read-out: Inhibition test of proliferation of OCI-Ly3 cells IC50
Param label: returns true (1) when IC50 < 100 nM, returns false (0) otherwise, including exact equality.

Solved entries (count: 6):
INSERT INTO measurements (molecule, category) VALUES
  ('O=C(Nc1ccc(-n2nccn2)c(C(F)(F)F)c1)c1cnn(-c2ccc3c4c(cccc24)C(=O)N3)c1C(F)(F)F [Example 50]', 'false (0)'),
  ('O=C(Nc1ccc(-n2cccn2)c(C(F)(F)F)c1)c1cnn(-c2cnc3c4c(cccc24)C(=O)N3)c1C(F)(F)F [Example 74]', 'false (0)'),
  ('O=C(Nc1cnc(-n2nccn2)c(Cl)c1)c1cnn(-c2ccc3c4c(cccc24)C(=O)N3)c1C1CC1 [Example 60]', 'false (0)'),
  ('O=C(Nc1ccc(-n2nccn2)c(Cl)c1)c1cnn(-c2cnc3c4c(cccc24)C(=O)N3)c1C(F)(F)F [Example 75]', 'false (0)'),
  ('O=C(Nc1cnc(-n2nccn2)c(Cl)c1)c1cnn(-c2ccc3c4c(cccc24)C(=O)N3)c1C(F)(F)F [Example 5]', 'false (0)'),
  ('O=C(Nc1ccc(-n2cccn2)c(C(F)(F)F)c1)c1cnn(-c2ccc3c4c(cccc24)C(=O)N3)c1C(F)(F)F [Example 51]', 'true (1)');

In the following, a different molecule is considered.
hey, is IC50 for O=C(Nc1cnc(-n2nccn2)c(C(F)(F)F)c1)c1cnn(-c2ccc3c4c(cccc24)C(=O)N3)c1C(F)(F)F [Example 18] lower than 100 nM or not?
true (1)

* * *

Experiment Description: Pharmacokinetics of oral administration in Balb/C mice
Format: in vivo
Particulars: male, mouse, po, 30 mg/kg, P.O., plasma
Consider the following molecules; for each one, report its AUC(0-inf).
Numbers only, in µg·h/mL.

Here's what some known entries look like.
INSERT INTO assay_data (chem_smiles, measured_metric, reported_result) VALUES
  ('O=C(Nc1cnc(-n2nccn2)c(C(F)(F)F)c1)c1cnn(-c2ccc3c4c(cccc24)C(=O)N3)c1C(F)(F)F', 'AUC(0-inf)', 222),
  ('O=C(Nc1cnc(-n2cccn2)c(C(F)(F)F)c1)c1cnn(-c2ccc3c4c(cccc24)C(=O)N3)c1C(F)(F)F', 'AUC(0-inf)', 197);

Now turn to the next molecule.
The recorded AUC(0-inf) for O=C(Nc1cnc(-n2nccn2)c(Cl)c1)c1cnn(-c2ccc3c4c(cccc24)C(=O)N3)c1C(F)(F)F is 64.1

* * *

Consider the following compounds; for each one, report its TGI (%) Day 28.
Test system: OCI-LY3 cell subcutaneous xenograft tumor
Experiment Description: Tumor inhibition in OCI-LY3 subcutaneous xenograft NOG mouse model of human diffuse large B-cell lymphoma
Format: in vivo
Particulars: NOG mice, 30 mg, BID × 4 weeks, oral
One number for each entry, in %.

INSERT INTO assay_data (compound, measured_metric, reported_result) VALUES
  ('O=C(Nc1ccc(-n2nccn2)c(Cl)c1)c1cnn(-c2ccc3c4c(cccc24)C(=O)N3)c1C(F)(F)F [Example 53]', 'TGI (%) Day 28', 67.23),
  ('O=C(Nc1cnc(-n2nccn2)c(C(F)(F)F)c1)c1cnn(-c2ccc3c4c(cccc24)C(=O)N3)c1C(F)(F)F [Example 18]', 'TGI (%) Day 28', 62.73);

Please give TGI (%) Day 28 for each item listed below.
1. O=C(Nc1ccnc(C(F)(F)F)c1)c1cnn(-c2ccc3c4c(cccc24)C(=O)N3)c1C(F)(F)F [Example 27]
2. O=C(Nc1ccnc(C(F)(F)F)c1)c1cnn(-c2ccc3c4c(cccc24)C(=O)N3)c1C1CC1 [Example 55]

[93.04, 87.99]
